Measurement notes: Tmax in NOD-SCID mouse at 15 mg/kg, ip administered as single dose and measured upto 48 hrs by HPLC/MS analysis
Assay type: ADME, organism-based
Assay setup: in vivo
Measured endpoint: Tmax (min)

O=C1Nc2cc(Cl)cc(Cl)c2C1=O | 15
C=CC(=O)N1CCN(c2ncnc3c(F)c(-c4c(O)cccc4F)c(Cl)cc23)CC1 | 15
O=Cc1c(O)ccc2ccccc12 | 15

###

Measurement notes: Selectivity ratio of IC50 for human MRC5 cells to IC50 for human SW1573 cells harboring homozygous KRAS G12C mutant
Format: toxicity
Assay setup: MRC5 cells versus SW1573 cells (homozygous KRAS G12C mutant), read-out: Ratio IC50
Measured endpoint: selectivity ratio
Kindly provide the number alone.

// selectivity ratio lookup, key: `C=CC(=O)N1CC(N2CCN(C(=O)CNc3cc(C4(C)CC4)c(Cl)cc3O)CC2)C1` 2.9

###

System: MIA PaCa-2
Measurement notes: Antiproliferative activity against human MIA PaCa-2 cells harboring homozygous KRAS G12C mutant assessed as inhibition of cell growth incubated for 72 hrs by MTT assay
Assay type: functional, cell-based
Assay setup: MIA PaCa-2, 72 h
Measured endpoint: IC50 (µM)

a. C=CC(=O)N1CC(N2CCN(C(=O)CNc3cc(C4(C)CC4)c(Cl)cc3O)CC2)C1
b. C=CC(=O)N1CCN(c2ncnc3c(F)c(-c4c(O)cccc4F)c(Cl)cc23)CC1
c. O=Cc1c(O)ccc2ccccc12
d. O=C1Nc2cc(Cl)cc(Cl)c2C1=O
From the records above, write out the order of decreasing IC50. Answer by listing the labels in the order asked for. c, d, a, b
(c: 24.5 µM, d: 13.7 µM, a: 5.8 µM, b: 0.5 µM)

###

Measurement notes: Clearance in NOD-SCID mouse at 15 mg/kg, ip administered as single dose and measured upto 48 hrs by HPLC/MS analysis
Format: ADME, organism-based
Assay setup: in vivo
Measured endpoint: CL/F (mL/min)

a. O=C1Nc2cc(Cl)cc(Cl)c2C1=O
b. O=Cc1c(O)ccc2ccccc12
c. C=CC(=O)N1CCN(c2ncnc3c(F)c(-c4c(O)cccc4F)c(Cl)cc23)CC1
Rank the 3 compounds: largest CL/F first, smallest last. I'd appreciate it if you listed the labels in the requested order. a, c, b

###

Measurement notes: AUCt in NOD-SCID mouse at 15 mg/kg, ip administered as single dose and measured upto 48 hrs by HPLC/MS analysis
Type: ADME, organism-based
Set-up: dose 15 mg/kg, time < 48 hrs, route ip
Assay setup: in vivo
Measured endpoint: AUC(0-t) at 48 h (ng·h/mL)

A. O=Cc1c(O)ccc2ccccc12
B. C=CC(=O)N1CCN(c2ncnc3c(F)c(-c4c(O)cccc4F)c(Cl)cc23)CC1
C. O=C1Nc2cc(Cl)cc(Cl)c2C1=O
Let's sort these by AUC(0-t) at 48 h, smallest first. Go ahead? To answer, arrange all of the labels according to the requested order. C, B, A

###

Measurement notes: Cytotoxicity against human MRC5 cells assessed as inhibition of cell growth incubated for 72 hrs by MTT assay
Type: toxicity, cell-based
Recorded IC50 at 72 h for the following molecules
Write it as a number; the unit µM goes unstated.

Answered examples (2):
O=C1Nc2cc(Cl)cc(Cl)c2C1=O | 47.9
O=Cc1c(O)ccc2ccccc12 | 25

Moving on to the next molecule.
Consider the molecule `C=CC(=O)N1CC(N2CCN(C(=O)CNc3cc(C4(C)CC4)c(Cl)cc3O)CC2)C1` and give its measured IC50 at 72 h. 75.3

This collection of values is drawn from ChEMBL document CHEMBL5335777.
